Sourced from patent US20230304058A1

Kindly supply the reported Intracellular immunogenicity of mRNA when using different Cap structures values for the records listed here.
- System: TLR3, TLR7, TLR8 and RIG-1
- Assay Comment: Intracellular immunogenicity of capped mRNA by RNA immunoprecipitation and quantitative PCR
- Assay type: cell-based
- Assay Conditions: relative to ARCA; Human-derived PBMC cells, 5 μg mRNA, Lipofectamine 2000, 24 h
# output: bare number, no unit

Report Intracellular immunogenicity of mRNA when using different Cap structures for "CO[C@@H]1[C@H](O)[C@@H](COP(=O)(O)O[C@H]2[C@@H](OC)[C@H](n3ccc(N)nc3=O)O[C@@H]2COP(=O)(O)OP(=O)(O)OP(=O)([O-])OC[C@H]2O[C@@H](n3c[n+](C)c4c(=O)[nH]c(N)nc43)[C@H](O)[C@@H]2OC)O[C@H]1n1ccc(N)nc1=O" please. 0.09

Then "CO[C@@H]1[C@H](OP(=O)(O)OC[C@H]2O[C@@H](n3cnc4c(N)ncnc43)[C@H](OC)[C@@H]2O)[C@@H](COP(=O)(O)OP(=O)(O)OP(=O)([O-])OC[C@H]2O[C@@H](n3c[n+](C)c4c(=O)[nH]c(N)nc43)[C@H](O)[C@@H]2OC)O[C@H]1n1ccc(=O)[nH]c1=O" ? 0.48

Then "CO[C@@H]1[C@H](O)[C@@H](COP(=O)(O)O[C@H]2[C@@H](OC)[C@H](n3cnc4c(=O)[nH]c(N)nc43)O[C@@H]2COP(=O)(O)OP(=O)(O)OP(=O)([O-])OC[C@H]2O[C@@H](n3c[n+](C)c4c(=O)[nH]c(N)nc43)[C@H](O)[C@@H]2OC)O[C@H]1n1cnc2c(=O)[nH]c(N)nc21" ? 0.31

Then "CO[C@@H]1[C@H](O)[C@@H](COP(=O)(O)O[C@H]2[C@@H](OC)[C@H](n3cnc4c(N)ncnc43)O[C@@H]2COP(=O)(O)OP(=O)(O)OP(=O)([O-])OC[C@H]2O[C@@H](n3c[n+](C)c4c(=O)[nH]c(N)nc43)[C@H](O)[C@@H]2O)O[C@H]1n1cnc2c(N)ncnc21" ? 0.52

Then "CO[C@@H]1[C@H](OP(=O)(O)OC[C@H]2O[C@@H](n3cnc4c(N)ncnc43)[C@H](OC)[C@@H]2O)[C@@H](COP(=O)(O)OP(=O)(O)OP(=O)([O-])OC[C@H]2O[C@@H](n3c[n+](C)c4c(=O)[nH]c(N)nc43)[C@H](O)[C@@H]2O)O[C@H]1n1ccc(=O)[nH]c1=O" ? 0.31

Then "CO[C@@H]1[C@H](OP(=O)(O)OC[C@H]2O[C@@H](n3cnc4c(=O)[nH]c(N)nc43)[C@H](OC)[C@@H]2O)[C@@H](COP(=O)(O)OP(=O)(O)OP(=O)([O-])OC[C@H]2O[C@@H](n3c[n+](C)c4c(=O)[nH]c(N)nc43)[C@H](O)[C@@H]2OC)O[C@H]1n1ccc(=O)[nH]c1=O" ? 0.51
